Quick reference for EC50 among some molecules
Tested on: ATF4 luciferase reporter in HEK293T cells
protocol-notes: ATF4-Luc assay (in vitro model of VWMD)
Format: cell-based, human
condition-summary: Homo sapiens, HEK-293T, 7 h, HEK293T cells carrying the ATF4 luciferase reporter, 1 μg/mL tunicamycin, One Glo luminescence

Some molecules with recorded EC50:
{"columns": ["molecule", "val"],
 "data": [
  ["O=C(NC12CC(c3ccnc(OCCOC(F)(F)F)n3)(C1)C2)[C@H]1C[C@@H](O)c2cc(Cl)c(F)cc2O1 [Compound 469]", "< 0.01 µM"],
  ["COc1ncc(-c2cnn(C34CC(NC(=O)[C@H]5C[C@@H](O)c6cc(Cl)ccc6O5)(C3)C4)c2)cn1 [Compound 320]", "0.01 to 0.05 µM"],
  ["O=C(NC12CC(c3ccnc(-n4cc(C(F)(F)F)cn4)c3)(C1)C2)[C@H]1C[C@@H](O)c2cc(C(F)(F)F)ccc2O1 [Compound 558]", "0.01 to 0.05 µM"],
  ["O=C(NC12CC(n3cc(-c4ccc(OC(F)F)cn4)cn3)(C1)C2)[C@H]1C[C@@H](O)c2cc(Cl)c(F)cc2O1 [Compound 576]", "< 0.01 µM"],
  ["O=C(CO[C@H]1C[C@@H](OC(F)(F)F)C1)N[C@@H]1C[C@@H]2C[C@H]1C[C@H]2NC(=O)[C@@H]1C[C@@H](O)c2cc(Cl)ccc2O1 [Compound 393]", "0.05 to 0.25 µM"],
  ["O=C(NC12CC(n3cc(O[C@H]4C[C@H](COC(F)(F)F)C4)cn3)(C1)C2)[C@H]1C[C@@H](O)c2cc(Cl)ccc2O1 [Compound 588]", "0.01 to 0.05 µM"],
  ["O=C(COc1ccc(Cl)c(F)c1)NC12CC(n3cc(OC[C@H]4C[C@@H](OC(F)(F)F)C4)cn3)(C1)C2 [Compound 612]", "< 0.01 µM"],
  ["COc1ccc2cn(C34CC(NC(=O)[C@H]5C[C@@H](O)c6cc(Cl)c(F)cc6O5)(C3)C4)nc2c1 [Compound 504]", "< 0.01 µM"],
  ["O=C(N[C@H]1C[C@H]2CC[C@@H](C1)N2CCCOc1ccc(Cl)cc1)C1C[C@@H](O)c2cc(Cl)ccc2O1 (stereo partly shown) [Compound 125]", "0.05 to 0.25 µM"],
  ["O=C(NC12CC(n3cc(C4CCN(CC(F)(F)F)CC4)cn3)(C1)C2)[C@H]1C[C@@H](O)c2cc(Cl)ccc2O1 [Compound 580]", "< 0.01 µM"]
]}

Request the reported EC50 associated with O=C(NC12CC(c3cnn(CCCOC(F)(F)F)c3)(C1)C2)[C@H]1C[C@@H](O)c2cc(Cl)ccc2O1 [Compound 528]
0.01 to 0.05 µM

I would be grateful if you could share the reported EC50 for O=C(NC12CC(n3cc(N4CC[C@@H](OC(F)(F)F)C4)cn3)(C1)C2)[C@H]1C[C@@H](O)c2cc(Cl)ccc2O1 [Compound 356] .
< 0.01 µM

Given the entry COc1ccc2nn(C34CCC(NC(=O)[C@H]5C[C@@H](O)c6cc(Cl)ccc6O5)(C3)C4)cc2c1 [Compound 652] , report its measured EC50.
0.01 to 0.05 µM
